The reported measurements were obtained from the supplement of paper PMC9233669.

Tested on: biotinyl-Phe-oxazolone
Assay: self-aminoacylation, catalytic enhancement (BFO) (fold over background); higher = more active; k-Seq, kA / k0A0; sequences stand for … in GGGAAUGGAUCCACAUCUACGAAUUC…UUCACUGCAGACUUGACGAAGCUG
Variants at the floor of the assay were thinned out.
measureName: self-aminoacylation
Answers are plain numbers.

Use these answered entries as a reference point.
AUUCAGCUAGGUCAUCUGGUG [Fam2.2 aminoacylation ribozyme variant]	13.4
AUUCACCUAGGUCAUCAGAUG [Fam2.2 aminoacylation ribozyme variant]	0.715
CUACUCCAAACAAUCGGACUG [Fam1A.1 aminoacylation ribozyme variant]	1.13
AUUACGCUGGUCAUCGAGUCA [Fam2.1 aminoacylation ribozyme variant]	0.768
AUACGCCUAGGUCAUCGGGUG [Fam2.2 aminoacylation ribozyme variant]	36

Give me self-aminoacylation for each of these sequences, listed below.
1. AAGUUUGCUAAUAGCCGCCAG [Fam3.1 aminoacylation ribozyme variant]
2. AUUCACCUAGCACAUCGGGUG [Fam2.2 aminoacylation ribozyme variant]
3. CCACACGCCAAGCAAUCGGUC [Fam1B.1 aminoacylation ribozyme variant]
4. AUUUACCUUGGUCAUCGGGUG [Fam2.2 aminoacylation ribozyme variant]

## Result
[0.63, 11.3, 0.829, 45.7]

Give me self-aminoacylation for each of these sequences, listed below.
1. GGUACCCUGGUCAUCGAGUGA [Fam2.1 aminoacylation ribozyme variant]
2. AUGACCCUGGUUAUCGAGUGA [Fam2.1 aminoacylation ribozyme variant]
3. AUUCACCUAGGUGAUCGGGUU [Fam2.2 aminoacylation ribozyme variant]
4. AUUACACUGGUCAUCGAGCGA [Fam2.1 aminoacylation ribozyme variant]
5. AAGUUGGCUAAUAGUCGGAAG [Fam3.1 aminoacylation ribozyme variant]

## Result
1: 38.7; 2: 15.5; 3: 9.06; 4: 0.889; 5: 2.31

Give me self-aminoacylation for each of these sequences, listed below.
1. CUACACUUCCAGCAAUCGGUC [Fam1B.1 aminoacylation ribozyme variant]
2. AAGUUUGCUCAUACUCGCAAG [Fam3.1 aminoacylation ribozyme variant]
3. AUUCACCUAGGGCAUCUGGUG [Fam2.2 aminoacylation ribozyme variant]
4. ACUUACCUAGGUCAUCGGGUG [Fam2.2 aminoacylation ribozyme variant]
5. CUAUUUCAUACAAUCGGUCUG [Fam1A.1 aminoacylation ribozyme variant]
6. AUUCACAUAGGCCAUCGGGUG [Fam2.2 aminoacylation ribozyme variant]
7. AAGUUUGCUAAUUGUUGCAAG [Fam3.1 aminoacylation ribozyme variant]

## Result
0.865
0.813
13
48.7
0.812
34.7
1.11

###

System: biotinyl-Trp-oxazolone
Experiment: self-aminoacylation, catalytic enhancement (BWO) (fold over background); higher = more active; k-Seq, kA / k0A0; sequences stand for … in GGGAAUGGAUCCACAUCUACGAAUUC…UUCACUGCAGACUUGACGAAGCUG
This sample holds only a part of the variants without activity.
measureName: self-aminoacylation
One number for each entry.

CUACUUUAAACAAUCGGCCUG [Fam1A.1 aminoacylation ribozyme variant]	2.02
AUUGACCUAGGUCAUCGUGUG [Fam2.2 aminoacylation ribozyme variant]	1.35
AAGUUUGCUAAUAGCCGCAAA [Fam3.1 aminoacylation ribozyme variant]	1.3
AAGUUGGCUAAUAAUCGCAAG [Fam3.1 aminoacylation ribozyme variant]	2.04
UUUACCCUGGUAAUCGAGUGA [Fam2.1 aminoacylation ribozyme variant]	10.4

Give me self-aminoacylation for each of these sequences, listed below.
1. AUAUACCUAGGUCAUCGGGUG [Fam2.2 aminoacylation ribozyme variant]
2. AUCCAUCUAGGUCAUCGGGUG [Fam2.2 aminoacylation ribozyme variant]

## Result
4.16
5.63

###

Tested on: biotinyl-Trp-oxazolone
Assay: self-aminoacylation, catalytic enhancement (BWO) (fold over background); higher = more active; k-Seq, kA / k0A0; sequences stand for … in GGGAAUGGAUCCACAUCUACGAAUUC…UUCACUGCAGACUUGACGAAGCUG
This sample holds only a part of the variants without activity.
measureName: self-aminoacylation
Give bare numbers.

Use these answered entries as a reference point.
AUUAACCUAGGUCAUCGGCUG [Fam2.2 aminoacylation ribozyme variant]	1.57
CUACUUCAGUCAAUCGGUCUG [Fam1A.1 aminoacylation ribozyme variant]	0.463
CUACUUCUAACAAUCGGUCUG [Fam1A.1 aminoacylation ribozyme variant]	0.532
CUCAUUCAAACAAUCGGUCUG [Fam1A.1 aminoacylation ribozyme variant]	7.42
CCACACUUCAAGCAAUCCGUG [Fam1B.1 aminoacylation ribozyme variant]	2.78
AUUAACCUAGGUCCUCGGGUG [Fam2.2 aminoacylation ribozyme variant]	3.09

## Task Which self-aminoacylation reading was recorded for the sequence GUUCACCUAGGUCAACGGGUG [Fam2.2 aminoacylation ribozyme variant] ?
## Result 3.22

###

Tested on: biotinyl-Trp-oxazolone
Test: self-aminoacylation, catalytic enhancement (BWO) (fold over background); higher = more active; k-Seq, kA / k0A0; sequences stand for … in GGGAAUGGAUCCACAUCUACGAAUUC…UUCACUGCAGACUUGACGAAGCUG
Fewer inactive variants are shown than the library holds.
measureName: self-aminoacylation
Give bare numbers.

Use these answered entries as a reference point.
AUUCAGCUAGGUCACCGGGUG [Fam2.2 aminoacylation ribozyme variant]	7.07
AUUAUCCUGGUCAUCGAGUGC [Fam2.1 aminoacylation ribozyme variant]	0.981

Okay, next one:
## Task Which self-aminoacylation reading was recorded for the sequence AUUCACCAGGGUCAUCGGGUG [Fam2.2 aminoacylation ribozyme variant] ?
## Result 6.99

###

Can you tell me self-aminoacylation for the items I'm about to list?
Tested on: biotinyl-Leu-oxazolone
Assay: self-aminoacylation, catalytic enhancement (BLO) (fold over background); higher = more active; k-Seq, kA / k0A0; sequences stand for … in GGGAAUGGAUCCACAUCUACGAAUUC…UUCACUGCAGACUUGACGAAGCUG
Variants at the floor of the assay were thinned out.
Give bare numbers.

Use these answered entries as a reference point.
CUACUUCAAACCAUCGGUGUG [Fam1A.1 aminoacylation ribozyme variant]	1.52
CCACACUUCAAUCAAACGGUC [Fam1B.1 aminoacylation ribozyme variant]	0.575
CUACUUCACACAAUCGGUCUU [Fam1A.1 aminoacylation ribozyme variant]	0.856
CCACAUUUCAAGCAAUCAGUC [Fam1B.1 aminoacylation ribozyme variant]	0.906
AAGUUUUCUAAUAGUCGCAAA [Fam3.1 aminoacylation ribozyme variant]	1.41
GAGUUUGCGAAUAGUCGCAAG [Fam3.1 aminoacylation ribozyme variant]	1.76
AUUACCCUGGGAAUCGAGUGA [Fam2.1 aminoacylation ribozyme variant]	5.93
CUGCUUCAAACAAGCGGUCUG [Fam1A.1 aminoacylation ribozyme variant]	0.777

Give me self-aminoacylation for each of these sequences, listed below.
1. AUUACCCUGGUCACCGAGUUA [Fam2.1 aminoacylation ribozyme variant]
2. AUUACCCUGGUCAUUGAGUGA [Fam2.1 aminoacylation ribozyme variant]
3. AUUCACACAGGUCAUCGGGUG [Fam2.2 aminoacylation ribozyme variant]
4. AUUAACCUGGUCAUCGAGUUA [Fam2.1 aminoacylation ribozyme variant]

## Result
1: 1.26; 2: 8.58; 3: 7.14; 4: 1.06

###

Can you tell me self-aminoacylation for the items I'm about to list?
System: biotinyl-Leu-oxazolone
Assay: self-aminoacylation, catalytic enhancement (BLO) (fold over background); higher = more active; k-Seq, kA / k0A0; sequences stand for … in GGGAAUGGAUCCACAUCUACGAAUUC…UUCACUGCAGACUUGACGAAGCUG
Variants at the floor of the assay were thinned out.
Give bare numbers.

Use these answered entries as a reference point.
AGCACCCUGGUCAUCGAGUGA [Fam2.1 aminoacylation ribozyme variant]	6.84
CCACACUUGAAGCAAUUGGUC [Fam1B.1 aminoacylation ribozyme variant]	0.539

## Task Which self-aminoacylation reading was recorded for the sequence AUUACCCUGGUCAUCGUGAGA [Fam2.1 aminoacylation ribozyme variant] ?
## Result 0.777

###

System: biotinyl-Met-oxazolone
Test: self-aminoacylation, catalytic enhancement (BMO) (fold over background); higher = more active; k-Seq, kA / k0A0; sequences stand for … in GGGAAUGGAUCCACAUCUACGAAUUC…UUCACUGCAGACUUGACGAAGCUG
This sample holds only a part of the variants without activity.
measureName: self-aminoacylation
One number for each entry.

Use these answered entries as a reference point.
AUUCACCUAGCUCAUGGGGUG [Fam2.2 aminoacylation ribozyme variant]	5.15
AUUACCCUGGUCACCGAGUUA [Fam2.1 aminoacylation ribozyme variant]	1.52

Give me self-aminoacylation for each of these sequences, listed below.
1. AAGUUUGCCAAUAGUUGCAAG [Fam3.1 aminoacylation ribozyme variant]
2. CCACUUCAAAGAAUCGGUCUG [Fam1A.1 aminoacylation ribozyme variant]
3. CUACUUCUAACAAUCGGUGUG [Fam1A.1 aminoacylation ribozyme variant]
4. AUUCAUCUAGGCCAUCGGGUG [Fam2.2 aminoacylation ribozyme variant]
5. AUUUCCCUGGUCAUCGCGUGA [Fam2.1 aminoacylation ribozyme variant]
6. AAGUUGGCUAAUAAUCGCAAG [Fam3.1 aminoacylation ribozyme variant]
7. AAGUUUACUAAUAUUCGCAAG [Fam3.1 aminoacylation ribozyme variant]
8. CAGUUUGCUAAUAGUCGCAAG [Fam3.1 aminoacylation ribozyme variant]

## Result
0.895
1.04
0.91
3.38
18.9
1.29
1.31
1.28

Give me self-aminoacylation for each of these sequences, listed below.
1. CCACACUUUCAGCAAUCGGUC [Fam1B.1 aminoacylation ribozyme variant]
2. CCCCACUUCAAGCAAUCGAUC [Fam1B.1 aminoacylation ribozyme variant]
3. AUUACCCUGCUCAUCGAGAGA [Fam2.1 aminoacylation ribozyme variant]
4. AUUACCGUGGUCAUCGAGUGC [Fam2.1 aminoacylation ribozyme variant]
5. AUUAGCCUGGGCAUCGAGUGA [Fam2.1 aminoacylation ribozyme variant]
6. AAGUCUGCUAAUAGUCGUAAG [Fam3.1 aminoacylation ribozyme variant]

## Result
[0.799, 0.533, 0.805, 0.762, 6.92, 2.5]
